From: patent US7423114B2

# System: mAb 3F8-GD2 interactions
# procedure-text: Competitive ELISA: inhibition of mAb 3F8 binding to immobilized GD2 by peptides
# run-conditions: peptides 50 μg/well, 1 hour before mAb 3F8; immobilized GD2; no peptide = 0%, no mAb 3F8 = 100%; mean ± SEM of 5 experiments
assay-metric: % Inhibition of mAb 3F8-GD2 interactions (%)

Check out these entries, answers already filled in.
residues | u | % Inhibition of mAb 3F8-GD2 interactions
C G G I T N Y N C (CGGITNYNC) [Pep 54] | % | 40.34
C G G I T N Y N S A C (CGGITNYNSAC) [Pep 52] | % | 30.17
C T N Y G V H C (CTNYGVHC) [Pep 55] | % | 12.23
G G I A N Y N T S (GGIANYNTS) [Pep 57] | % | 4.33
C I T N Y N S C (CITNYNSC) [Pep 53] | % | 24.74
G G I T N Y N S A L M (GGITNYNSALM) [Pep 51] | % | 44.96

1 = C I A N Y N T C (CIANYNTC) [Pep 60]
2 = C T N Y G V C (CTNYGVC) [Pep 56]
stdin: 1 or 2 : whose % Inhibition of mAb 3F8-GD2 interactions is greater? State the label of the item chosen.
stdout: 1
(1: 30.94%, 2: 14.13%)
